# tested.target: HLA-A*02:01 (Homo sapiens, UniProt P04439, D140Y/D185E/D98H/E176V/E277Q/G131W/G231S/I119V/I121R/I166T/I218V/L300P/L318F/N151K/N90K/P208A/P217A/Q86G/Q94H/R138H/R169H/T345S)
# measurement.description: MHC binding assay (UV-ligand exchange, beta2m ELISA)
# condition.context: binding to HLA-A*02:01 ranged by peptide exchange yield (UV-ligand exchange, β2m ELISA)
readout.type: Peptide exchange

Completed entries (count: 8):
substance	readout.type	observed.measurement
90 (TLLQIIETV; listed as Homo sapiens) [compound 90]	Peptide exchange	“+++” (≥50 = +++)
68 (SLMELPRGLFL; listed as Homo sapiens) [compound 68]	Peptide exchange	“++++” (≥75% = ++++)
367 (SLQNHNHQL; listed as Homo sapiens) [compound 367]	Peptide exchange	“+++” (≥50 = +++)
378 (ALGYFVPYV; listed as Homo sapiens) [compound 378]	Peptide exchange	“+++” (≥50 = +++)
250 (ALSEEGLLVYL; listed as Homo sapiens) [compound 250]	Peptide exchange	“+++” (≥50 = +++)
297 (VLADIELAQA; listed as Homo sapiens) [compound 297]	Peptide exchange	“+++” (≥50 = +++)
152 (ILFEDIFDV; listed as Homo sapiens) [compound 152]	Peptide exchange	“+++” (≥50 = +++)
400 (SLLTEQDLWTV; listed as Homo sapiens) [compound 400]	Peptide exchange	“++” (≥20% = ++)

Sure, the documented Peptide exchange for 427 (ALLPLSPYL; listed as Homo sapiens) [compound 427] is “+++” (≥50 = +++)
